# target: human GR (Homo sapiens, UniProt P04150)
# Sequence (P04150 whole entry): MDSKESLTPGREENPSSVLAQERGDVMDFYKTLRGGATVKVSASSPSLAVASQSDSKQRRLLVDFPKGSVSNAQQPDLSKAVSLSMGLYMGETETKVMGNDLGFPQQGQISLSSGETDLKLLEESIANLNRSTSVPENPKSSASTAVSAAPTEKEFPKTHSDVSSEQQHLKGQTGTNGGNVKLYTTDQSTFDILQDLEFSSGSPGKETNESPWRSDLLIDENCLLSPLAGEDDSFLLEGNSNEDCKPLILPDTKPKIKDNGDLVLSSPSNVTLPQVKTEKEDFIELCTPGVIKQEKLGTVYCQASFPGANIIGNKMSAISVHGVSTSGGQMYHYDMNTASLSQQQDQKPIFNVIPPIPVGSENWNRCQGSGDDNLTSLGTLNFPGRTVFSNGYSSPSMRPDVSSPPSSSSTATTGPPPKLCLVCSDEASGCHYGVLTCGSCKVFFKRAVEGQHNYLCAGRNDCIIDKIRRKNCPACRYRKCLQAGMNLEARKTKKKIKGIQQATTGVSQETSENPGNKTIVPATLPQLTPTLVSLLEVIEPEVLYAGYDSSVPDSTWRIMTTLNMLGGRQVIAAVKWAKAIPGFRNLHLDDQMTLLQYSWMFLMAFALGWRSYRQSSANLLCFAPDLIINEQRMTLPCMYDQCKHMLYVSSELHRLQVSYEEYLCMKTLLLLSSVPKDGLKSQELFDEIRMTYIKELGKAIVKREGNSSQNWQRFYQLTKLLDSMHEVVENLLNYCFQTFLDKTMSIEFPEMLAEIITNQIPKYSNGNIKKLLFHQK
# protocolNotes: Trans-Activation Modulation of Glucocorticoid Receptor (GRAMMER), MMTV-LUC reporter, agonist mode
# Type: cell-based
# Set-up: endogenous in cells
# setupConditions: A549 cells; inflection point; read-out: Transactivation A549 Cells GRAMMER IP
readoutLabel: EC50 (nM)

# compound, EC50 (nM)
records = [
    ("C[C@]12Cc3cnn(-c4ccc(F)cc4)c3C=C1CC[C@@H]2CN(CCCc1ccccc1)S(=O)(=O)CC(F)(F)F [Example 193]", 303),
]

a = C[C@]12Cc3cnn(-c4ccccc4)c3C=C1CC[C@@H]2CN(CCc1ccccc1O)S(=O)(=O)Cc1cccnc1 [Example 141]
b = C[C@]12Cc3cnn(-c4ccc(F)cc4)c3C=C1CC[C@@H]2CN(CC1CC1)S(=O)(=O)c1ccccc1F [Example 2]
c = CN1CCOc2cc(S(=O)(=O)N(CC#N)C[C@H]3CCC4=Cc5c(cnn5-c5ccc(F)cc5)C[C@@]43C)ccc21 [Example 39]
Descending sort on EC50 required. The response must list the labels following the requested ordering.
c, a, b
